System: Hepatitis C virus
Test Details: Antiviral activity against HCV in human Huh7 cells by RNA replicon assay
Type: functional, organism-based, Hepacivirus hominis
Protocol Conditions: Huh-7
pEC50: −log10 of the molar value.
Reported pEC50 by item:

Entry under review: Cc1ccc(-c2cn3c(=O)c4ncn([C@H]5CO[C@@H](CO)O5)c4nc3[nH]2)cc1 . Reported pEC50?
< 5.00

Entry under review: C[C@@]1(O)[C@H](O)[C@@H](CO)O[C@H]1n1cnc2c(=O)n3cc(-c4cccs4)[nH]c3nc21 . Reported pEC50?
5.16

Entry under review: CCN(CC)c1ccc(-c2cn3c(=O)c4ncn([C@H]5CO[C@@H](CO)O5)c4nc3[nH]2)cc1 . Reported pEC50?
< 5.00

Entry under review: CCN(CC)c1ccc(-c2cn3c(=O)c4ncn([C@H]5C=C[C@@H](CO)C5)c4nc3[nH]2)cc1 . Reported pEC50?
< 5.00

Entry under review: O=c1c2ncn([C@H]3CO[C@@H](CO)O3)c2nc2[nH]c(-c3ccc(F)cc3)cn12 . Reported pEC50?
< 5.00

Entry under review: O=c1c2ncn([C@H]3C=C[C@@H](CO)C3)c2nc2[nH]c(-c3cccs3)cn12 . Reported pEC50?
< 5.00

Entry under review: COc1cccc(-c2cn3c(=O)c4ncn([C@H]5CO[C@@H](CO)O5)c4nc3[nH]2)c1 . Reported pEC50?
< 5.00

Entry under review: N#Cc1ccc(-c2cn3c(=O)c4ncn([C@H]5CO[C@@H](CO)O5)c4nc3[nH]2)cc1 . Reported pEC50?
< 5.00

Entry under review: C[C@@]1(O)[C@H](O)[C@@H](CO)O[C@H]1n1cnc2c(=O)[nH]c(N)nc21 . Reported pEC50?
5.64

Entry under review: O=c1c2ncn([C@H]3CO[C@@H](CO)O3)c2nc2[nH]c(-c3cccs3)cn12 . Reported pEC50?
< 5.00

Entry under review: O=c1c2ncn([C@H]3C=C[C@@H](CO)C3)c2nc2[nH]c(-c3ccc(Br)cc3)cn12 . Reported pEC50?
< 5.00

Entry under review: COc1ccc(-c2cn3c(=O)c4ncn([C@@H]5O[C@H](CO)[C@@H](O)[C@@]5(C)O)c4nc3[nH]2)cc1 . Reported pEC50?
≤ 5.00

Entry under review: CCN(CC)c1ccc(-c2cn3c(=O)c4ncn([C@H]5C[C@H](N=[N+]=[N-])[C@@H](CO)O5)c4nc3[nH]2)cc1 . Reported pEC50?
< 5.00

Entry under review: Cc1ccc(-c2cn3c(=O)c4ncn([C@H]5C=C[C@@H](CO)C5)c4nc3[nH]2)cc1 . Reported pEC50?
< 5.00

Entry under review: [N-]=[N+]=N[C@H]1C[C@H](n2cnc3c(=O)n4cc(-c5ccccc5)[nH]c4nc32)O[C@@H]1CO . Reported pEC50?
< 5.00

* * *

Test Details: Cytotoxicity against human PBMC cells
Assay type: cell-based
Protocol Conditions: PBMC cells
Reported CC50 by item:

Entry under review: CCc1cn2c(=O)c3ncn([C@@H]4O[C@H](CO)[C@@H](O)[C@@]4(C)O)c3nc2[nH]1 . Reported CC50?
> 100 µM

***
Entry under review: C[C@@]1(O)[C@H](O)[C@@H](CO)O[C@H]1n1cnc2c(=O)[nH]c(N)nc21 [2'-B-METHYL-GUANOSINE] . Reported CC50?
> 100 µM

* * *

System: Human immunodeficiency virus
Test Details: Antiviral activity against HIV in human PBM cells
Protocol Conditions: Human immunodeficiency virus 1, PBMC
pEC50: −log10 of the molar value.
Could you label it true (1) if measured pEC50 is 6 or higher, and false (0) otherwise?

Is it the case that O=c1c2ncn([C@H]3C=C[C@@H](CO)C3)c2nc2[nH]c(-c3cccs3)cn12 has pEC50 reaching or exceeding 6?
true (1)

Is it the case that [N-]=[N+]=Nc1ccc(-c2cn3c(=O)c4ncn([C@H]5CO[C@@H](CO)O5)c4nc3[nH]2)cc1 has pEC50 reaching or exceeding 6?
false (0)

Is it the case that O=c1c2ncn([C@H]3C=C[C@@H](CO)C3)c2nc2[nH]c(-c3ccsc3)cn12 has pEC50 reaching or exceeding 6?
false (0)

Is it the case that COc1ccc(-c2cn3c(=O)c4ncn([C@H]5C=C[C@@H](CO)C5)c4nc3[nH]2)cc1 has pEC50 reaching or exceeding 6?
true (1)

Is it the case that C[C@@]1(O)[C@H](O)[C@@H](CO)O[C@H]1n1cnc2c(=O)[nH]c(N)nc21 has pEC50 reaching or exceeding 6?
false (0)

Is it the case that C[C@@]1(O)[C@H](O)[C@@H](CO)O[C@H]1n1cnc2c(=O)n3cc(-c4ccsc4)[nH]c3nc21 has pEC50 reaching or exceeding 6?
false (0)

Is it the case that CN(C)c1ccc(-c2cn3c(=O)c4ncn([C@H]5C=C[C@@H](CO)C5)c4nc3[nH]2)cc1 has pEC50 reaching or exceeding 6?
true (1)

Is it the case that CCN(CC)c1ccc(-c2cn3c(=O)c4ncn([C@H]5C[C@H](N=[N+]=[N-])[C@@H](CO)O5)c4nc3[nH]2)cc1 has pEC50 reaching or exceeding 6?
true (1)

Is it the case that O=c1c2ncn([C@H]3CO[C@@H](CO)O3)c2nc2[nH]c(-c3ccc(F)cc3)cn12 has pEC50 reaching or exceeding 6?
false (0)

Is it the case that COc1ccccc1-c1cn2c(=O)c3ncn([C@H]4CO[C@@H](CO)O4)c3nc2[nH]1 has pEC50 reaching or exceeding 6?
false (0)

Is it the case that CCN(CC)c1ccc(-c2cn3c(=O)c4ncn([C@H]5C=C[C@@H](CO)C5)c4nc3[nH]2)cc1 has pEC50 reaching or exceeding 6?
true (1)

Is it the case that N#Cc1ccc(-c2cn3c(=O)c4ncn([C@H]5CO[C@@H](CO)O5)c4nc3[nH]2)cc1 has pEC50 reaching or exceeding 6?
false (0)

Is it the case that COc1ccc(-c2cn3c(=O)c4ncn([C@@H]5O[C@H](CO)[C@@H](O)[C@@]5(C)O)c4nc3[nH]2)cc1 has pEC50 reaching or exceeding 6?
false (0)

Is it the case that CN(C)c1ccc(-c2cn3c(=O)c4ncn([C@H]5CO[C@@H](CO)O5)c4nc3[nH]2)cc1 has pEC50 reaching or exceeding 6?
true (1)

Is it the case that O=c1c2ncn([C@H]3CO[C@@H](CO)O3)c2nc2[nH]c(-c3ccc(Cl)cc3)cn12 has pEC50 reaching or exceeding 6?
false (0)

Is it the case that O=c1c2ncn([C@H]3C=C[C@@H](CO)C3)c2nc2[nH]c(-c3ccc(Br)cc3)cn12 has pEC50 reaching or exceeding 6?
false (0)

* * *

Reported CC50 by item:
Test Details: Cytotoxicity against african green monkey Vero cells
Assay type: cell-based
Protocol Conditions: chlorocebus sabaeus, Vero cells

Entry under review: C[C@@]1(O)[C@H](O)[C@@H](CO)O[C@H]1n1cnc2c(=O)[nH]c(N)nc21 . Reported CC50?
> 100 µM

// below: CC50 requested for another compound
Entry under review: CCc1cn2c(=O)c3ncn([C@@H]4O[C@H](CO)[C@@H](O)[C@@]4(C)O)c3nc2[nH]1 . Reported CC50?
> 100 µM
